Ref: patent US11236052B2

tested on: OCI-LY3; experiment: CellTiter-Glo cell viability assay, OCI-LY3; format: cell-based; conditions: Homo sapiens; Lymphoma, OCI-LY3, 72 hours
pIC50: −log10 of the molar value.
Catalogue of compounds with associated pIC50
Value kind: pIC50

- Given smiles: "O=C(NO)c1ccc(Nc2nc3ccccc3n2CC2CCCCC2)cc1"
  Value reported: 5.98
- Given smiles: "O=C(NO)c1ccc(Nc2nc3ccccc3n2C2CCCCCC2)cc1"
  Value reported: 5.64

###

system: SUDHL-10; assay: CellTiter-Glo cell viability assay, SUDHL-10; assay type: cell-based; settings: Homo sapiens, SU-DHL10; Lymphoma, SUDHL-10, 72 hours
Catalogue of compounds with associated IC50
Value kind: IC50

- Compound: "O=C(NO)c1ccc(Nc2nc3ccccc3n2C2CCCCCC2)cc1 [ID #3]"
  Value kind: "IC50"
  Value reported: "1510 nM"
- Compound: "O=C(NO)c1ccc(Nc2nc3ccccc3n2CC2CCCCC2)cc1 [ID #1]"
  Value kind: "IC50"
  Value reported: "550 nM"
